Biological target: mouse DP receptor (Mus musculus, UniProt P70263)
Sequence (P70263 whole entry): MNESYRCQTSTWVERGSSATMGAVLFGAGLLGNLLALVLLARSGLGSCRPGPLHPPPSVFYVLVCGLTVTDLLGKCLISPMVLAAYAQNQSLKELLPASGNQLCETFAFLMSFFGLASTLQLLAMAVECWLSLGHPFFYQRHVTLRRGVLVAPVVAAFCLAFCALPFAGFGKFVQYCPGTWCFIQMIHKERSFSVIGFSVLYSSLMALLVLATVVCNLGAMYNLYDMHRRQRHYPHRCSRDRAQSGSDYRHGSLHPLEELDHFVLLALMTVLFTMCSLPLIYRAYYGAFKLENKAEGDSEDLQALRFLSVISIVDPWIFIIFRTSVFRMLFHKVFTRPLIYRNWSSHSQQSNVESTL
Assay: DP antagonistic activity assay using prostanoid DP receptor-expressing cells (cAMP production by PGD2)
Settings: CHO cells expressing mouse DP receptor; inhibition of cAMP production by PGD2 at 100 nM
Description: As shown in the above results, it is apparent that the compound of the present invention potently binds to a DP receptor. • (ii) DP antagonistic activity assay using prostanoid DP receptor-expressing cells CHO cells expressing a mouse DP receptor were prepared according to the method of Nishigaki et al. (FEBS lett., 364, 339–341 (1995)), inoculated onto a 24-well microplate at 10^5 cells/well, followed by culturing for 2 days, and used for the assay. […]
MEASURED PARAMETER: pIC50
FYI, pIC50 means -log10 of a concentration in mol per litre.

# input molecule: Cc1cc2c(CC(=O)O)cccc2n1C(=O)c1ccc(OCCc2ccccc2)cc1 [1(3)] ; wanted: its pIC50 6.92
